Each record here notes measured Emax.
STUDY_TARGET: CB1 (mutant) (Homo sapiens)
TEST_NAME: R-SAT functional receptor assay, CB1 (mutant, truncated after amino acid 417)
Assay type: cell-based
TEST_CONDITIONS: Appendix A; R-SAT CB1; receptor form not stated; relative to SR141716 (100%); read-out: % Inhibition
Give the figure together with its unit, number first.

// solved cases for Emax follow
>>> assay_result("O=C(NCCc1cccnc1)c1ccc2c(c1)N=C(c1cccc(Cl)c1)c1ccccc1S2 [drawing 857]")
"100%"
>>> assay_result("CC(CNC(=O)c1ccc2c(c1)N=C(N1CCCCC1)c1ccccc1S2)c1ccccc1 (stereo not drawn) [drawing 1017]")
"105%"
>>> assay_result("CC(C)NC(=O)c1ccc2c(c1)N=C(c1ccc(Br)cc1)c1ccccc1S2")
"83%"
>>> assay_result("O=C(NCc1cccc(Cl)c1)c1ccc2c(c1)N=C(C1CCCCC1)c1ccccc1S2 [drawing 637]")
"112%"
>>> assay_result("CC(C)CCNC(=O)c1ccc2c(c1)N=C(c1ccccc1Cl)c1ccccc1S2 [drawing 1053]")
"105%"

Challenge: Can you look up the measured Emax of CC(C)NC(=O)c1ccc2c(c1)N=C(c1ccc(Cl)cc1F)c1ccccc1S2 [drawing 664] for me?
Response given: 101%

Challenge: # repeat for CC(CNC(=O)c1ccc2c(c1)N=C(C1CCCCC1)c1ccccc1S2)c1ccccc1 (stereo not drawn) [drawing 783]
Response given: 100%

Challenge: Again, but for CONC(=O)c1ccc2c(c1)N=C(c1cccc(Cl)c1)c1ccccc1S2
Response given: 89%

Challenge: Item: COc1ccc(C2=Nc3cc(C(=O)NNC(=O)Cc4ccccc4)ccc3Sc3ccccc32)cc1
Response given: 77%

* * *

STUDY_TARGET: CB1 (mutant) (Homo sapiens, UniProt P21554)
Sequence (P21554 1-417, change not shown): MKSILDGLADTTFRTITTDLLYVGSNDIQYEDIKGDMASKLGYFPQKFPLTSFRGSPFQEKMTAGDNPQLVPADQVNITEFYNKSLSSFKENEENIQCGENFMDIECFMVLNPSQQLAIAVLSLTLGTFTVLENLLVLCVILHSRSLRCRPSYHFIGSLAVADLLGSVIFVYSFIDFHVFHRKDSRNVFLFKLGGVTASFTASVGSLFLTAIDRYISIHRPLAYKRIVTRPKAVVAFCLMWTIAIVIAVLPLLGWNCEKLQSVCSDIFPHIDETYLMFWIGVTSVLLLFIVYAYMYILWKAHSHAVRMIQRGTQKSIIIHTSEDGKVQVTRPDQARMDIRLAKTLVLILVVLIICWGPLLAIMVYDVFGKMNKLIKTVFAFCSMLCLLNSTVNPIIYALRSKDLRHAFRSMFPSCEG
TEST_NAME: R-SAT functional receptor assay, CB1 (mutant, truncated after amino acid 417)
Format: cell-based
TEST_CONDITIONS: Appendix A; R-SAT CB1; receptor form (mutant or wild-type) not stated; read-out: pIC50 (converted)
Measured IC50, listed per entry.
Answer in nM, number only, no unit symbol.

>>> assay_result("COCCNC(=O)c1ccc2c(c1)N=C(c1cccc(F)c1)c1ccccc1S2 [drawing 1025]")
25.1
>>> assay_result("O=C(NC1CCCC1)c1ccc2c(c1)N=C(c1ccccn1)c1ccccc1S2")
158
>>> assay_result("O=C(NC1CCC(F)(F)CC1)c1ccc2c(c1)N=C(c1ccc(Cl)s1)c1ccccc1S2 [drawing 767]")
10
>>> assay_result("C[C@@H]1CCC[C@H](C)N1NC(=O)c1ccc2c(c1)N=C(c1cccc(F)c1)c1ccccc1S2 [drawing 727]")
7.94
>>> assay_result("CC(C)CNC(=O)c1ccc2c(c1)N=C(c1ccc(Cl)cc1)c1ccc(Cl)cc1S2 [drawing 1113]")
39.8
>>> assay_result("Cc1ccc(N2CCN(C(=O)c3ccc4c(c3)N=C(CC(C)C)c3ccccc3S4)CC2)c(C)c1")
251

Challenge: # query: IC50 of entry O=C(NCCc1cccc(Cl)c1)c1ccc2c(c1)N=C(c1ccc(F)cc1)c1ccccc1S2 [drawing 919]
Response given: 15.8

Challenge: Same question for Clc1ccc(C2=Nc3cc(-c4ncc[nH]4)ccc3Sc3ccccc32)cc1 [drawing 846] please.
Response given: 158

Challenge: Record: O=C(NCCc1ccncc1)c1ccc2c(c1)N=C(c1ccc(Cl)cc1Cl)c1ccccc1S2
Response given: 316

Challenge: Now this one: CCCC1=Nc2cc(C(=O)NCCN(C)C3CCCCC3)ccc2Sc2ccccc21
Response given: 2000
